Assignment: determine reported IC50 for the given compounds.
- Assay System: GABA transporter (Rattus norvegicus, UniProt P31647+P23978+P31646+P48056)
- Experiment Description: In vitro inhibitory activity against [3H]GABA transport in rat cerebrocortical membranes
- Assay type: cell membranes

Lookup: Sample CCOC(=O)[C@@H]1CN(C)C(C)[C@](O)(c2ccccc2)[C@H]1C(=O)OCC (some centres not stated) — what was its IC50?
Found: >> 1000 uM

Lookup: Can you share its IC50? I mean this compound: CC1N(C)C[C@@H](C(=O)O)[C@H](C(=O)O)[C@@]1(O)c1ccccc1 (some centres not stated)
Found: >> 1000 uM

Lookup: Quick one: IC50 of CCOC(=O)CN(C)C(C)C(=O)c1ccccc1.Cl (configuration not stated) ?
Found: >> 1000 uM

Lookup: Fill blank: measured IC50 of the compound CCOC(=O)/C=C(/c1ccccc1)C(C)N(C)CC(=O)OCC (configuration not stated) is ____.
Found: 270 µM

Lookup: Which measured IC50 value corresponds to COC(=O)CN(C)C(C)C(=O)c1ccccc1.Cl (configuration not stated) ?
Found: >> 1000 uM

Lookup: Field request: IC50 | item: CCOC(=O)C1=C(c2ccccc2)C(C)N(C)CC1C(=O)OCC (configuration not stated)
Found: >> 1000 uM

Lookup: IC50 for COC(=O)/C=C(/c1ccccc1)C(C)N(C)CC(=O)OC (configuration not stated) ?
Found: 1100 µM

Lookup: Please give the measured IC50 for this compound: CCOC(=O)C1C(=O)C=C(c2ccccc2)C(C)N1C (configuration not stated)
Found: 680 µM

Lookup: Look up IC50: CCOC(=O)[C@H]1[C@H](C(=O)O)CN(C)C(C)[C@]1(O)c1ccccc1 (some centres not stated)
Found: >> 1000 uM

Lookup: // lookup IC50 for COC(=O)/C=C(\c1ccccc1)C(C)N(C)CC(=O)OC (configuration not stated)
Found: >> 1000 uM

Lookup: Field request: IC50 | item: CCOC(=O)/C=C(\c1ccccc1)C(C)N(C)CC(=O)OCC (configuration not stated)
Found: >> 1000 uM

Lookup: Please look up its IC50: CCOC(=O)CNC(C)C(=O)c1ccccc1.Cl (configuration not stated)
Found: >> 1000 uM
